Ref: patent US20110118447A1

Target: binding partner of C5A (XPA23)
Assay: Biacore, K-off
value-kind: fold difference in affinity vs original (fold)
Respond with the bare value in fold.

[ask] # get_value(readout='fold difference in affinity vs original', item= C5A (XPA23) VH D106S (antibody, V domains shown) VH: EVQLLESGGGLVQPGGSLRLSCAASGFTFSKYFMFWVRQAPGKGLEWVSVISPSGGMTRYADSVKGRFTISRDNSKNTLYLQMNSLRAEDTAVYYCARVGYGGNSSYWGQGTLVTVSS VL: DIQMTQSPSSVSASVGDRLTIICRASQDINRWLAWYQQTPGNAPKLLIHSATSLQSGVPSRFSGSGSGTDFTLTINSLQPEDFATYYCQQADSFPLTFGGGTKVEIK )
[reply] 0.03

[ask] # get_value(readout='fold difference in affinity vs original', item= C5A (XPA23) VH D106E (antibody, V domains shown) VH: EVQLLESGGGLVQPGGSLRLSCAASGFTFSKYFMFWVRQAPGKGLEWVSVISPSGGMTRYADSVKGRFTISRDNSKNTLYLQMNSLRAEDTAVYYCARVGYGGNSEYWGQGTLVTVSS VL: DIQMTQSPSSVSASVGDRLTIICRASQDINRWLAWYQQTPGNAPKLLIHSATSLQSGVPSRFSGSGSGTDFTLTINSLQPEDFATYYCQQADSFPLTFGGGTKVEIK )
[reply] 0.04

[ask] # get_value(readout='fold difference in affinity vs original', item= C5A (XPA23) VH P53Q (antibody, V domains shown) VH: EVQLLESGGGLVQPGGSLRLSCAASGFTFSKYFMFWVRQAPGKGLEWVSVISQSGGMTRYADSVKGRFTISRDNSKNTLYLQMNSLRAEDTAVYYCARVGYGGNSDYWGQGTLVTVSS VL: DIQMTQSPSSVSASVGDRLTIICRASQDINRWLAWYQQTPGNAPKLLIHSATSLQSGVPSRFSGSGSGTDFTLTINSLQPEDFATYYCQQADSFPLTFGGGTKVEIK )
[reply] 0.03

[ask] # get_value(readout='fold difference in affinity vs original', item= C5A (XPA23) VH G56H (antibody, V domains shown) VH: EVQLLESGGGLVQPGGSLRLSCAASGFTFSKYFMFWVRQAPGKGLEWVSVISPSGHMTRYADSVKGRFTISRDNSKNTLYLQMNSLRAEDTAVYYCARVGYGGNSDYWGQGTLVTVSS VL: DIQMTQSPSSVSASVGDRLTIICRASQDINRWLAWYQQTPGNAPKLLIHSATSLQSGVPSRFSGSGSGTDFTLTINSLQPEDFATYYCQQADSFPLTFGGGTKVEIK )
[reply] 0.82

[ask] # get_value(readout='fold difference in affinity vs original', item= C5A (XPA23) VH V99T (antibody, V domains shown) VH: EVQLLESGGGLVQPGGSLRLSCAASGFTFSKYFMFWVRQAPGKGLEWVSVISPSGGMTRYADSVKGRFTISRDNSKNTLYLQMNSLRAEDTAVYYCARTGYGGNSDYWGQGTLVTVSS VL: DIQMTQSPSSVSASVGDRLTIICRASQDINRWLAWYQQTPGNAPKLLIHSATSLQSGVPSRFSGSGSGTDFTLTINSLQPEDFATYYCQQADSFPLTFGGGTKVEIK )
[reply] 0.1
